Ref: PubChem BioAssay (NCATS)

Tested on: C2A
Assay Remarks: qHTS profiling for inhibitors of Plasmodium falciparum proliferation (AID 504749); also: nearly all actives have a fitted effect of over 60% in size
Assay Setup: P. falciparum in erythrocytes, SYBR Green DNA, 72 h; series mostly up to 28.7 µM
Results filed as inconclusive are left out. Activity calls are given as the source filed them. Calls follow the shape of the dose curve; as a rule, active = well fitted inhibition curve with a large enough effect; inconclusive = small, poorly fitted or top-dose-only effect; inactive = flat fitted curve, though single readings scatter.
Classes to choose from: active, inactive

Prompt: Fill in: this test's call for O=C(O)CCCc1ccc(N(CCCl)CCCl)cc1 is ___
Completion: inactive

Prompt: Now try NCCc1ccc(O)cc1 .
Completion: inactive

Prompt: Now try CN1C(=O)C(O)N=C(c2ccccc2)c2cc(Cl)ccc21 (stereo not given) .
Completion: inactive

Prompt: Now try O=c1oc2ccccc2c(O)c1Cc1c(O)c2ccccc2oc1=O .
Completion: inactive

Prompt: Now try c1ccc2c(c1)sc1ccccc12 .
Completion: inactive

====

Tested on: N140
Assay Remarks: qHTS profiling for inhibitors of Plasmodium falciparum proliferation (AID 504749); also: nearly all actives have a fitted effect of over 60% in size
Assay Setup: P. falciparum in erythrocytes, SYBR Green DNA, 72 h; series mostly up to 28.7 µM
Results filed as inconclusive are left out. The source made the active and inactive calls. The call rests on the fitted dose curve; in most records, active means well fitted inhibition curve with a large enough effect; inconclusive means small, poorly fitted or top-dose-only effect; inactive means flat fitted curve, though single readings scatter.
Classes to choose from: True for active, False for inactive

Prompt: Fill in: this test's call for CN1C(=O)CCS(=O)(=O)C1c1ccc(Cl)cc1 (stereo unspecified) is ___
Completion: False

Prompt: Now try CN1C(=O)COc2c(C(=O)NC3CN4CCC3CC4)cc(Cl)cc21 (stereo unspecified) .
Completion: False

Prompt: Now try O=P1(N(CCCl)CCCl)NCCCO1 (stereo unspecified) .
Completion: False

Prompt: Now try O=C(Nc1ccc(Br)cc1)c1cc(Br)cc(Br)c1O .
Completion: False

Prompt: Now try CCC1(CC)C(=O)C=CNC1=O .
Completion: False

====

Assay Remarks: qHTS of pediatric cancer cell lines to identify multiple opportunities for drug repurposing: Primary screen for U-2 OS cells (AID 1347096); also: nearly all actives have a fitted effect of over 50% in size
Assay Setup: U-2 OS viability, CellTiter-Glo luminescence, 48 h; series mostly up to 46 µM
Records with an inconclusive call do not appear. Active and inactive are the calls of the source. Calls come from the whole dose curve; as a rule, active = well fitted cell-killing curve with a large enough effect; inconclusive = small, poorly fitted or top-dose-only effect; inactive = flat fitted curve, though single readings scatter.
Classes to choose from: T = active, F = inactive

Examples with answers:
CNC(C)(C)Cc1ccccc1	F
C[N+]1(CCF)[C@@H]2CC[C@H]1CC(OC(=O)C(O)(c1ccccc1)c1ccccc1)C2 (some centres not stated)	F
COP(=S)(OC)Oc1ccc(S(=O)(=O)N(C)C)cc1	F
Nc1ccc([As](=O)(O)O)cc1	F
CCCCC/C=C\C/C=C\C/C=C\C/C=C\CCCC(=O)NCC(=O)O	F

Prompt: Fill in: this test's call for CC(=O)OCC1=C(C(=O)O)N2C(=O)[C@@H](N)[C@H]2SC1 is ___
Completion: F

Prompt: Now try NCCc1ccc(O)cc1 .
Completion: F

Prompt: Now try COc1ccc2c3c1O[C@H]1[C@H](O)CC[C@H]4[C@@H](C2)N(C)CC[C@@]341 .
Completion: F

Prompt: Now try CCCCCCCCCC(=O)O[C@H]1CC[C@H]2[C@@H]3CCC4=CC(=O)CC[C@@H]4[C@H]3CC[C@]12C .
Completion: F

Prompt: Now try CCOC(=O)CC(SP(=S)(OC)OC)C(=O)OCC (configuration not stated) .
Completion: F

Prompt: Now try CCCCCCC(=O)CCCCCC/C=C/C[C@@H](O)[C@H](O)[C@@](N)(CO)C(=O)O .
Completion: F

Prompt: Now try COc1cccc2c1C(=O)c1c(O)c3c(c(O)c1C2=O)C[C@@](O)(C(=O)CO)CC3OC1CC(N2CCOC(OC)C2)C(O)C(C)O1 (some centres not stated) .
Completion: T

Prompt: Now try CC(=O)NC1CCSC1=O (configuration not stated) .
Completion: F

Prompt: Now try C[C@]12CC[C@@H]3c4ccc(OC(=O)N(CCCl)CCCl)cc4CC[C@H]3[C@@H]1CC[C@@H]2OP(=O)(O)O .
Completion: F

Prompt: Now try C[C@H]1[C@@H]2Cc3ccc(O)cc3[C@@]1(C)CCN2C .
Completion: F

Prompt: Now try O=C1CN=C(c2ccccc2)c2cc([N+](=O)[O-])ccc2N1 .
Completion: F

Prompt: Now try CN1CC[C@]23c4c5ccc(O)c4O[C@H]2[C@@H](O)C=C[C@H]3[C@H]1C5 .
Completion: F

Prompt: Now try C=C(C)[C@H]1CN[C@H](C(=O)O)[C@H]1CC(=O)O .
Completion: F

Prompt: Now try CCC1(c2ccccc2)C(=O)N(COC)C(=O)N(COC)C1=O .
Completion: F

Prompt: Now try C[C@H](N)C(=O)c1ccccc1 .
Completion: F

Prompt: Now try COc1c2c(cc3c1OCO3)CCN(C)C2 .
Completion: F

Prompt: Now try O=c1c(C2CC(c3ccc(-c4ccc(Br)cc4)cc3)Cc3ccccc32)c(O)sc2ccccc12 (configuration not stated) .
Completion: F

====

Target Or System: D(1A) dopamine receptor (Homo sapiens)
Assay Remarks: HTS Assay for Allosteric Agonists of the Human D1 Dopamine Receptor: Primary Screen for Agonists (AID 488981)
Assay Setup: Inducible HEK293 T-REx D1 cells, calcium-flux fluorescence, 180 s kinetic; series mostly up to 41.8 µM
Records with an inconclusive call do not appear. Activity calls are given as the source filed them. The call rests on the fitted dose curve; in most records, active means well fitted activation curve with a large enough effect; inconclusive means small, poorly fitted or top-dose-only effect; inactive means flat fitted curve, though single readings scatter.
Classes to choose from: T (active), F (inactive)

Examples with answers:
CCCCC/C=C\C/C=C\C/C=C\C/C=C\CCCC(=O)NCC(=O)O	F
COc1ccc2c(c1OC)C(=O)O[C@H]2[C@@H]1c2cc3c(cc2CCN1C)OCO3	F
CC(NC(C)(C)C)C(=O)c1cccc(Cl)c1 (stereo not drawn)	F
O=P1(N(CCCl)CCCl)NCCCO1 (stereo not drawn)	F
CC(C)c1cccc(C(C)C)c1O	F

Prompt: Fill in: this test's call for O=C(CCCN1CCC2(CC1)C(=O)NCN2c1ccccc1)c1ccc(F)cc1 is ___
Completion: T

Prompt: Now try CCC1(c2ccc(N)cc2)CCC(=O)NC1=O (stereo not drawn) .
Completion: F

Prompt: Now try O=C(O)CCCc1ccc(N(CCCl)CCCl)cc1 .
Completion: F

====

Assay Remarks: qHTS of pediatric cancer cell lines to identify multiple opportunities for drug repurposing: Primary screen for NB-EBc1 cells (AID 1347095)
Assay Setup: NB-EBc1 neuroblastoma viability, CellTiter-Glo luminescence, 48 h; series mostly up to 46 µM
Inconclusive results are not listed. Active and inactive are the calls of the source. Calls come from the whole dose curve; as a rule, active = well fitted cell-killing curve with a large enough effect; inconclusive = small, poorly fitted or top-dose-only effect; inactive = no such curve, though single readings can be large or run the other way.
Measure: outcome

For orientation, consider the following solved cases.
COP(=S)(OC)Oc1cc(Cl)c(Cl)cc1Cl	inactive
C=CCC1([C@H](C)CCC)C(=O)NC(=O)NC1=O	inactive
CCC(CC)(CNC(=O)CCCO)c1cccc(OC)c1	inactive
C[C@]12CC[C@H]3[C@@H](CCC4=CC(=O)CC[C@@H]43)[C@@H]1CC[C@@H]2OC(=O)CCc1ccco1	inactive
CCN(CCO)CCn1c(Cc2ccccc2)nc2c1c(=O)n(C)c(=O)n2C	inactive

Prompt: What does the record list as outcome for NC(=O)CS(=O)C(c1ccccc1)c1ccccc1 (configuration not stated) ?
Completion: inactive

Prompt: Now try C[C@H](N)C(=O)c1ccccc1 .
Completion: inactive

====

Assay Remarks: Cell Viability - LYMP2-007 (AID 979);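 also: cells exposed to compound for 24 h before reading; nearly all actives have a fitted effect of over 60% in size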
Assay Setup: LYMP2-007 lymphoblastoid cell viability; series mostly up to 92.2 µM
Inconclusive results are not listed. Calls of active or inactive are those of the source. The call rests on the fitted dose curve; in most records, active means well fitted cell-killing curve with a large enough effect; inconclusive means small, poorly fitted or top-dose-only effect; inactive means flat fitted curve, though single readings scatter.
Measure: outcome

Nc1ccccc1C(=O)O	inactive
O=P1(N(CCCl)CCCl)NCCCO1 (centres undefined)	inactive
CCCC(C)(COC(N)=O)COC(N)=O	inactive
C[C@]1(O)CC[C@H]2[C@@H]3CCC4=CC(=O)CC[C@]4(C)[C@@]3(F)[C@@H](O)C[C@@]21C	inactive
CC(C)c1cccc(C(C)C)c1O	inactive
COP(=S)(OC)Oc1ccc(SC)c(C)c1	inactive
Nc1ccccc1	inactive
CCC(C)(C)c1ccc(O)cc1	inactive

Next compound, please.
Prompt: What does the record list as outcome for NCCc1ccc(O)cc1 ?
Completion: inactive

====

Assay Remarks: qHTS of pediatric cancer cell lines to identify multiple opportunities for drug repurposing: Confirmatory screen for U-2 OS cells (AID 1347122); also: nearly all actives have a fitted effect of over 65% in size
Assay Setup: U-2 OS osteosarcoma cell viability; series mostly up to 45.9 µM
Results filed as inconclusive are left out. Active and inactive are the calls of the source. The call rests on the fitted dose curve; in most records, active means well fitted cell-killing curve with a large enough effect; inconclusive means small, poorly fitted or top-dose-only effect; inactive means no such curve, though single readings can be large or run the other way.
Classes to choose from: True for active, False for inactive

Examples with answers:
O=P1(N(CCCl)CCCl)NCCCO1 (centres undefined)	False
COc1cccc2c1C(=O)c1c(O)c3c(c(O)c1C2=O)C[C@@](O)(C(=O)CO)CC3OC1CC(N2CCOC(OC)C2)C(O)C(C)O1 (some centres undefined)	True

Prompt: Fill in: this test's call for CC(NC(C)(C)C)C(=O)c1cccc(Cl)c1 (centres undefined) is ___
Completion: True

Prompt: Now try CCOP(=S)(OCC)Oc1ccc2c(C)c(Cl)c(=O)oc2c1 .
Completion: False
